Measured total protein half-life in vivo by item
Test: total protein half-life in vivo (active degradation + dilution); higher = more stable protein
Details: wild type E. coli NCM3722; growth: C-lim chemostat; doubling time 6 h

construct sequence	total protein half-life in vivo (h)
MSWISPELIEILLTILKAVVILLVVVTCGAFMSFGERRLLGLFQNRYGPNRVGWGGSLQLVADMIKMFFKEDWIPKFSDRVIFTLAPMIAFTSLLLAFAIVPVSPGWVVADLNIGILFFLMMAGLAVYAVLFAGWSSNNKYSLLGAMRASAQTLSYEVFLGLSLMGVVAQAGSFNMTDIVNSQAHVWNVIPQFFGFITFAIAGVAVCHRHPFDQPEAEQELADGYHIEYSGMKFGLFFVGEYIGIVTISALMVTLFFGGWQGPLLPPFIWFALKTAFFMMMFILIRASLPRPRYDQVMSFGWKICLPLTLINLLVTAAVILWQAQ [P0AFD4]	6.75
MLKFIQNNREITALLAVVLLFVLPGFLDRQYLSVQTLTMVYSSAQILILLAMGATLVMLTRNIDVSVGSITGMCAVLLGMLLNAGYSLPVACVATLLLGLLAGFFNGVLVAWLKIPAIVATLGTLGLYRGIMLLWTGGKWIEGLPAELKQLSAPLLLGVSAIGWLTIILVAFMAWLLAKTAFGRSFYATGDNLQGARQLGVRTEAIRIVAFSLNGCMAALAGIVFASQIGFIPNQTGTGLEMKAIAACVLGGISLLGGSGAIIGAVLGAWFLTQIDSVLVLLRIPAWWNDFIAGLVLLAVLVFDGRLRCALERNLRRQKYARFMTPPPSVKPASSGKKREAA	5.06
MNIVITGGTGLIGRHLIPRLLELGHQITVVTRNPQKASSVLGPRVTLWQGLADQSNLNGVDAVINLAGEPIADKRWTHEQKERLCQSRWNITQKLVDLINASDTPPSVLISGSATGYYGDLGEVVVTEEEPPHNEFTHKLCARWEEIACRAQSDKTRVCLLRTGVVLAPDGGILGKMLPPFRLGLGGPIGSGRQYLAWIHIDDMVNGILWLLDNELRGPFNMVSPYPVRNEQFAHALGHALHRPAILRVPATAIRLLMGESSVLVLGGQRALPKRLEEAGFAFRWYDLEEALADVVR	5.86
